outcome.measure: melting point

> print(dat)
                                    compound  outcome.measure         result
 1  Cn1c(=O)c(C#N)c(N2CCN(C(=O)c3cccs3)CC2)c2ccccc21    melting point         247 °C
 2  CCC(O)(c1ccc(O)cc1)c1ccc(Br)cc1 (stereo not given)    melting point  161 to 162 °C
 3  O=C(O)Cc1cccc(C(=O)c2ccc(OCc3ccc4ccccc4c3)cc2)c1    melting point  150 to 152 °C
 4  CC1=NN(c2ccc(C)c(C)c2)C(=O)C1=NNc1cccc(-c2cccc(P(=O)(O)O)c2)c1O    melting point  144 to 149 °C
 5          N#Cc1ccc(N2CCC(CCO)CC2)c2ccccc12    melting point  128 to 129 °C
 6                  CC(C)N[C@H](C(=O)O)C(C)C    melting point       > 300 °C
 7  CCCCCCCCCCCCCCCCN(CCO)CCCCCCN(CCO)CCCCCCCCCCCCCCCC    melting point    29 to 30 °C
 8  O=C(O)COc1cccc(CSc2nc(-c3ccccc3)c(-c3ccccc3)[nH]2)c1    melting point  233 to 235 °C
 9  CCC(=O)NCC1CC1c1cccc2nscc12 (stereo not given)    melting point    84 to 86 °C
10  CCOc1cc(O)cc2c1C(=O)N(CSc1ccccc1)S2(=O)=O    melting point  204 to 205 °C
11        N#CCCc1ccnc(-c2nc(=O)c3ccccc3s2)c1    melting point  178 to 179 °C
12  O=S1(=O)N(CCCN2CCN(c3ccc(F)cc3)CC2)c2cccc3c2N1CCC3    melting point          98 °C
13     CC(=O)NCn1cc(-c2nc(Nc3ccccn3)sc2C)cn1    melting point         175 °C
14  CNC(=O)c1cc(-c2ccc(OC)c(F)c2)nn(CC(C)C)c1=O    melting point  153 to 155 °C
15  N#CCc1ccc(CNC(=O)C2Cc3ccccc3N2S(=O)(=O)c2ccc(-c3cccc(C(F)(F)F)c3)cc2)cc1 (stereo not given)    melting point    75 to 80 °C
16                    CC(=O)NCCc1ccc(CCl)cc1    melting point    86 to 88 °C
17  OC1Cc2cccc(-c3ccccc3)c2C1 (single isomer, unassigned; (+))    melting point  100 to 101 °C
18  O=C(NC(=O)c1c(Cl)cccc1Cl)Nc1ccc(Sc2ccc(Cl)cc2)nc1    melting point  160 to 162 °C
19      CCc1cccc(C)c1CNc1cc(OC)nc2c1nc(C)n2C    melting point  165 to 166 °C
20  CCCn1c(=O)c2nc(-c3cccc(/C=C/C(=O)O)c3)[nH]c2n(CC2CCCCC2)c1=O    melting point       > 350 °C
